# assay.procedure: gradient 5% acetonitrile 3 min, to 50% in 2 min, to 85% in 15 min, held 3 min, 100 µL/min
# particulars: column: Zorbax Extend-C18 2.1 x 50 mm; eluents: water / acetonitrile, 0.1% formic acid
Assign classes using reported RP-LC retention time values and the ranges one: < 800 s; two: ≥ 800 s and < 1000 s; three: ≥ 1000 s, please.

1. COc1ccc2c(c1)-c1nc(NC(=O)c3cccc(F)c3)sc1CC2 :: three
2. Cc1ccccc1-n1ncc2c(C)nn(CC(=O)Nc3cccc(C(F)(F)F)c3)c(=O)c21 :: two
3. CC(C)CNC(=O)c1ccc2c(c1)CCCN2S(C)(=O)=O :: one
4. CCC(=O)N1CCc2cc(N3CC(C(=O)NC4CCCC4)CC3=O)ccc21 (centres undefined) :: one
5. CN(C)c1ccc(CNC(=O)CCCn2c(=O)c3cccn3c3ccc(F)cc32)cc1 :: one
6. Cc1cccc2nc(-c3ccc(Cl)cc3)c(Nc3ccc4c(c3)OCCO4)n12 :: one
7. NC(=O)c1cc[nH]c1C1CCCN(S(=O)(=O)c2cnc[nH]2)C1 (centres undefined) :: one
8. O=C(Cc1ccccc1Cl)NCC1CCN(C(=O)Oc2ccccc2)CC1 :: one
9. Cc1ccc(C)c(NC(=O)C2CCCN(c3nc4c(s3)c(C)nn4-c3ccccc3)C2)c1 (centres undefined) :: three
10. CC1(C)C(=O)N2c3ccccc3C3(CC(N4C(=O)c5ccccc5C4=O)C(=O)O3)C2N1C(=O)OCc1ccccc1 (centres undefined) :: three
11. CCOC(=O)Cc1ccc(NC(=O)NC2CCN(c3ccccc3)C2=O)cc1 (centres undefined) :: one
12. Cc1ccc(Nc2nc(C)cc(N3CCN(S(=O)(=O)c4ccc5c(c4)OCCO5)CC3)n2)cc1 :: one
13. COC(=O)c1cc(OCC(=O)Nc2cc(F)ccc2F)c2ccccc2n1 :: two
14. COc1ccccc1N1CCN(c2cc(SCC(=O)NCCC3=CCCCC3)ncn2)CC1 :: three
15. CCOc1cccc(CNC(=O)c2nnc(-c3ccc(S(=O)(=O)N(C)C)cc3)o2)c1 :: two
16. O=C(NC1CCN(c2ccccc2)C1=O)c1ccccc1Br (centres undefined) :: one
17. Cc1ccccc1-c1csc(Nc2ccc(Br)cn2)n1 :: three
18. CC(=O)c1ccc2c(c1)[C@@H]1C=CC[C@@H]1[C@H](c1cc3c(cc1Br)OCO3)N2 :: three
19. Cc1cccc(C(=O)NCC2CCCN(S(=O)(=O)c3ccc4c(c3)CCCC4)C2)c1 (centres undefined) :: three
20. CCOC(=O)NC(=O)c1ccsc1NC(=O)c1ccc([N+](=O)[O-])s1 :: two
21. COc1ccc(CCNc2nc3ccncc3n(C(C)C)c2=O)cc1OC :: one
22. NC(=O)C1CCN(C(=O)Cn2c(=O)n(C3CCCCC3)c(=O)c3cc(Br)ccc32)CC1 :: one
23. COc1cc(C2CC(=O)c3cnc(N4CCN(CCO)CC4)nc3C2)cc(OC)c1OC (centres undefined) :: one
24. Cc1cc(C)cc(N2CCC(NC(=O)c3cccs3)C2=O)c1 (centres undefined) :: two
25. O=C(CSc1ccc(N2CCCC(C(=O)NC3CC3)C2)nn1)Nc1c(F)cccc1F (centres undefined) :: one
26. Cn1ccc2c(cc(C(=O)NCCC3=CCCCC3)n2C)c1=O :: one
27. Cc1ccccc1NC(=O)Cn1nc2cc(-c3ccccc3)nc(C)n2c1=O :: two
28. Cn1cc(C(=O)NCc2ccc3c(c2)OCO3)c2cccnc21 :: one
29. CCOc1ccc(N(C)S(=O)(=O)c2ccsc2C(=O)NCCCc2ccccc2)cc1 :: three
30. Cc1nc2ccn(Cc3cccnc3)c(=O)c2cc1C(=O)NCc1ccco1 :: one
31. CCN1C(=O)C2(CCN(S(=O)(=O)c3ccc(OC)c(Cl)c3)CC2)c2ccccc21 :: three
32. CCc1onc(C)c1C1CCCN1C(=O)Nc1cc(C)ccc1OC (centres undefined) :: two
